Collected ELISA OD values appear next to each entry.
- measurement-target: T1, human MIP-1-alpha (human, UniProt P10147 24-92, limits assumed)
- T1 construct: also called hMIP-1-alpha
- T1 sequence (looked up): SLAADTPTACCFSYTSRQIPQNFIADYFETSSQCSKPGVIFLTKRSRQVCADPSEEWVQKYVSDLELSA
- measurement-notes: ELISA, coated antigen
recorded-endpoint: ELISA OD (OD450)

{"binder": "anti-MCP-1 mAb 3.10.1 (antibody, V domains shown) VH: QVQLVQSGAEVKKPGASVKVSCKVSGYTLTELSMHWVRQAPGKGLEWMGGFDPEDGETIYAQKFQGRVMMTEDTSTDTAFMDLSSLRSEDTAVYYCATDDMLTPHYLYFGMDVWGQGTTVTVSS VL: DIQMTQSPSSLSASVGDRVTITCRASQGIRNDLGWYQQKPGKAPKRLIYATSSLQSGVPSRFSGSGSGTEFTLTISSLQPEDFATYYCLQHNTYPFTFGPGTKVDIKR", "measured-number": 0.043}
{"binder": "anti-MCP-1 mAb 3.11.1 (antibody, human IgG4, kappa, V domains shown) VH: QVQLQESGPGLVKPSQTLSLTCTVSGGSISSGGNYWNWIRQHPGKGLEWIGYIYYSGNTYYNPSLKSRITISIDTSKNQFSLTLSSVTAADTAVYYCARDGGDDAFDIWGQGTMVTVSS VL: DIQMTQSPSSLSASVGDRVTITCQASQDISNYLNWYQQKPGKAPKLLIYDASNLETGVPSRFSGSGSGTDFTFTINSLQPEDIATYYCQEYNNLPYSFGQGTKLEIKR", "measured-number": 0.053}
{"binder": "anti-MCP-1 mAb 3.5.1 (antibody, V domains shown) VH: QVQLVQSGAEVKKPGASVKVSCKVSGYTLSELSMHWVRQAPGKGLEWMGGFDPEDDETIYAQKFQGRVTMTEDTSTDTAFMELSSLRSEDTAVYYCATHDFWSGYFHYWGQGTLVTVSS VL: DIVMTQSPDSLAVSLGERATINCKSSQSVLYSSDNKSYLVWYQQKPGQPPKVLIYWASIRESGVPDRFSGSGSGTDFTLTISSLQAEDVAVYYCQQYYTSPWTFGQGTKVEIKR", "measured-number": 0.047}
